target: Streptavidin (Streptomyces avidinii); assay: compounds binding control protein streptavidin – biophysical, small-molecule microarray, 635/667 nm fluorescence, artefact control for SMM compound annotation, primary screen (AID 1147); conditions: higher = more signal;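 also: signal reflects streptavidin binding to arrayed compounds as a control protein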
Classification scheme (composite z-score): bin 0: < -0.4; bin 1: ≥ -0.4 and < 0.5; bin 2: ≥ 0.5

Just checking, what class would you give CN(C)CCCC[C@@H]1NC(=O)[C@@H]2C[C@H](C(=O)NCc3ccc(F)cc3)[C@H](c3cccc(OCCO)c3)N2C1=O here?
bin 1

Just checking, what class would you give C=CCC(OC(C)=O)[C@@H]1[C@@H](N(Cc2cc3ccccc3o2)C(=O)c2cccc3ccccc23)c2cc(OCCCO)ccc2N1C(=O)Cc1ccc(OC)cc1 (stereo not given in full) here?
bin 1

Just checking, what class would you give CC[C@@H]1C=C(C(=O)O)[C@H](c2ccc(C(C)C)cc2)N1S(=O)(=O)c1ccc(C)cc1 here?
bin 2

Just checking, what class would you give CC(C)(C)OC(=O)CC[C@]1(C(=O)NCC(O)CO)N=C(c2ccc(OCCCO)cc2)O[C@H]1c1ccccc1CN=[N+]=[N-] (stereo not given in full) here?
bin 2

Just checking, what class would you give O=C1OCCC=C[C@H]2OC34C=CCN(c5ccc6ccccc6c5)C(=O)[C@H]3N(CCCCCCO)C(=O)[C@@H]4C12 (stereo not given in full) here?
bin 0

Just checking, what class would you give O=C1C2C=CC(C(O)C3CC=CCC3)N(n3cnnc3)C2C(=O)N1Cc1ccccc1 (stereo not given) here?
bin 1

Just checking, what class would you give CCCCCCC#C[Si](O[C@H](c1ccccc1)c1cn([C@H](C)c2ccccc2)nn1)(C(C)C)C(C)C here?
bin 1

Just checking, what class would you give C[C@]1(C(=O)NCC(F)(F)F)c2ccccc2C(=O)N(Cc2cc(F)cc(C(F)(F)F)c2)[C@H]1c1ccc(CO)cc1 here?
bin 1

Just checking, what class would you give CN(C)CCCCNC(=O)[C@@H]1C[C@@H]2C(=O)N[C@@H](CCCCN)C(=O)N2[C@@H]1c1cccc(OCCO)c1 here?
bin 0

Just checking, what class would you give O=C1O[C@H](c2ccccc2)[C@H](c2ccccc2)N2[C@H]1[C@@H](C(=O)N1CCCCCCC1)[C@]1(C(=O)Nc3ccc(C#CC4=CCCCC4)cc31)[C@H]2c1ccc(O)cc1 here?
bin 2

Just checking, what class would you give O=C1C2C=CC(C(O)c3ccccn3)N(Nc3ccccc3F)C2C(=O)N1c1ccccc1 (stereo not given) here?
bin 1

Just checking, what class would you give O=P(NCC1(CC2(c3ccccc3)CO2)CC1)(c1ccccc1)c1ccccc1 (stereo not given) here?
bin 0

Just checking, what class would you give NC(=O)NCC#Cc1ccc2c(c1)[C@]1(C(=O)N2)[C@H](c2ccccc2OCCO)N2[C@H](c3ccccc3)[C@H](c3ccccc3)OC(=O)[C@H]2[C@@H]1C(=O)N1CCCCCCC1 here?
bin 2

Just checking, what class would you give C=C(C(=O)CC[C@H](OC(=O)c1cccnc1)c1ccccc1OCCO)C(C)C here?
bin 1
